Assay Protocol: pKa determination, microplate spectrophotometer method
Assay type: physicochemical
Condition Set: aqueous buffer, pH 8.8, target pH 9.0, actual pH 8.80; 5 µg/mL; 248 nm; read-out: pKa
Attribute Measured: pKa

INSERT INTO assay_data (compound, attribute_measured, obs_value) VALUES
  ('CC[C@@H]1CN2CCc3c([nH]c4cccc(OC)c34)[C@@H]2C[C@@H]1/C(=C\OC)C(=O)OC [mitragynine]', 'pKa', 8.06);

---

Assay Protocol: n-octanol/water partition coefficient (logP, logD)
Type: physicochemical
Condition Set: n-octanol/water; read-out: Calculated n-octanol/water partition coefficient (logP)
Attribute Measured: logP

INSERT INTO results (record_smiles, attribute_measured, obs_value) VALUES
  ('CC[C@@H]1CN2CCc3c([nH]c4cccc(OC)c34)[C@@H]2C[C@@H]1/C(=C\OC)C(=O)OC', 'logP', 1.7);
